- ASSAY NOTES: Plasma free fraction by ultrafiltration
- Type: in vitro ADME
- ASSAY SETUP: female, Danish Landrace and Yorkshire cross-breed, pig, plasma collected before tracer administration, n=3
METRIC NAME: fraction unbound
Lab note: jot down the number only; don't add units.

Challenge: # lookup: fraction unbound of C[C@H](CCC(=O)N([11CH3])CC(=O)O)[C@H]1CC[C@H]2[C@@H]3[C@H](O)C[C@@H]4C[C@H](O)CC[C@]4(C)[C@H]3C[C@H](O)[C@]12C [^11C—CSar]
Response given: 0.18
